meta.source: ChEMBL document CHEMBL1139282

The following compounds are shown together with reported IC50 values.
- Test system: MCF7
- run.description: Cytotoxicity against human MCF7 cells after 72 hrs by MTT assay
- Type: functional, cell-based
- protocol.conditions: MCF7, 72 h
Write it as a number; the unit µM goes unstated.

item.smiles | target.entity | IC50 [µM]
O=C1C=CC[C@H](/C=C/c2ccccc2)O1 | MCF7 | 28
O=C1C=CC[C@@H](c2ccc3ccccc3c2)O1 | MCF7 | 37

Please examine the following record next.
Req: Report IC50, nothing else, for this compound: "O=C1C=CC[C@H](c2ccc3ccccc3c2)O1"
Resp: 19

----------
- Tested on: LNCaP
- run.description: Cytotoxicity against human LNCAP cells after 72 hrs by MTT assay
- Assay type: functional, cell-based
metric: IC50 (µM)
Write it as a number; the unit µM goes unstated.

Examples from the recorded data:
item.smiles | result.number
O=C1C=CC[C@H](c2ccc3ccccc3c2)O1 | 11
O=C1C=CC[C@@H](c2ccc3ccccc3c2)O1 | 15

Please examine the following record next.
Req: Report IC50, nothing else, for this compound: "O=C1C=CC[C@H](/C=C/c2ccccc2)O1"
Resp: 12
